- Measurement Target: human GPR119 (hGPR119) (Homo sapiens)
- Construct: expressed in transfected cells
- Test Description: cAMP accumulation assay (Cisbio cAMP Gs dynamic HTRF kit) in CHO-K1 cells stably expressing human GPR119
- Type: cell-based
- Protocol Conditions: 1 h, % activity normalized to Max and Min controls, 4-parameter fit
Emax overview

Check out these entries, answers already filled in.
Compound: O=C(Cc1ccc(OCCCC2CCN(c3ncc(Cl)cn3)CC2)cc1F)N1CCC2(CCN(C[C@H](O)[C@@H](O)[C@H](O)[C@H](O)CO)C2)C1 (stereo partly drawn)
Emax: 100 to 130%
--
Compound: O=C(Cc1ccc(OCCCC2CCN(c3ncc(Cl)cn3)CC2)cc1F)N1CCC2(CCN(C[C@H](O)[C@H](O)[C@H](O)CO)C2)C1 (stereo partly drawn)
Emax: 100 to 130%

input: Reported Emax for O=C(Cc1ccc(OCCCC2CCN(c3ncc(Cl)cn3)CC2)cc1F)N1CCC2(CCN2C[C@H](O)[C@H](O)[C@H](O)CO)C1 (stereo partly drawn) : what is it?
output: 100 to 130%

====

EC50 overview
- Measurement Target: UniProt Q8TDV5
- Test Description: cAMP accumulation assay (Cisbio cAMP Gs dynamic HTRF kit) in CHO-K1 cells stably expressing human GPR119
- Protocol Conditions: 60 minutes at 37° C., 4-parameter fit

Check out these entries, answers already filled in.
Molecule: O=C(Cc1ccc(OCCCC2CCN(c3ncc(Cl)cn3)CC2)cc1F)N1CCC2(CN(C[C@H](O)[C@H](O)[C@H](O)CO)CCO2)C1 (stereo partly drawn)
Measured Value: ≤ 100 nM
//
Molecule: O=C(CCCCS(=O)(=O)O)N1C[C@@H]2C[C@H]1CN2C(=O)Cc1ccc(OCCCC2CCN(c3ncc(Cl)cn3)CC2)cc1F
Measured Value: ≤ 100 nM
//
Molecule: O=C(Cc1ccc(OCCCC2CCN(c3ncc(Cl)cn3)CC2)cc1F)N1CCC2(CC1)CCN2C[C@H](O)[C@@H](O)[C@H](O)[C@H](O)CO
Measured Value: ≤ 100 nM

input: Reported EC50 for O=C(Cc1ccc(OCCCC2CCN(c3ncc(Cl)cn3)CC2)cc1F)N1CCN(C[C@H](O)[C@H](O)[C@H](O)CO)CC1 : what is it?
output: ≤ 100 nM

input: Reported EC50 for O=C(Cc1ccc(OCCCC2CCN(c3ncc(Cl)cn3)CC2)cc1F)N1CCC2(CCN(C[C@H](O)[C@H](O)[C@H](O)CO)C2)C1 (stereo partly drawn) : what is it?
output: ≤ 100 nM

input: Reported EC50 for O=C(Cc1ccc(OCCCC2CCN(c3ncc(Cl)cn3)CC2)cc1F)N1C[C@@H]2CN(C[C@H](O)[C@H](O)[C@H](O)CO)C[C@@H]21 : what is it?
output: ≤ 100 nM

====

- Measurement Target: human GPR119 (hGPR119) (Homo sapiens)
- Construct: expressed in transfected cells
- Sequence (Q8TDV5 1-335): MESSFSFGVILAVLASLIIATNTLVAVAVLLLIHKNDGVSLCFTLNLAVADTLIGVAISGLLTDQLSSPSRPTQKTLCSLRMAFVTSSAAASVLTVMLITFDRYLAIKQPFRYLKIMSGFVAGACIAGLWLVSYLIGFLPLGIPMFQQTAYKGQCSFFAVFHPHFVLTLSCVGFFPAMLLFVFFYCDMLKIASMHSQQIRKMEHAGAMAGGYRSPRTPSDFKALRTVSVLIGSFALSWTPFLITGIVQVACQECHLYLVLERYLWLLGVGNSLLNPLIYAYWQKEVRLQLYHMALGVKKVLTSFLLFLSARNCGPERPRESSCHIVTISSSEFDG
- Test Description: cAMP accumulation assay (Cisbio cAMP Gs dynamic HTRF kit) in CHO-K1 cells stably expressing human GPR119
- Format: cell-based
- Protocol Conditions: 1 h, % activity normalized to Max and Min controls, 4-parameter fit
Recorded Metric: Emax

input: Reported Emax for O=C(Cc1ccc(OCCCC2CCN(c3ncc(Cl)cn3)CC2)cc1F)N1CC2(CCC2NC[C@H](O)[C@H](O)[C@H](O)CO)C1 (stereo partly drawn) [Example 78] : what is it?
output: ≥ 130%

input: Reported Emax for O=C(Cc1ccc(OCCCC2CCN(c3ncc(Cl)cn3)CC2)cc1F)N1CCCN(C[C@H](O)[C@H](O)[C@H](O)CO)CC1 [Example 50] : what is it?
output: 100 to 130%

input: Reported Emax for O=C(Cc1ccc(OCCCC2CCN(c3ncc(Cl)cn3)CC2)cc1F)N1CCC2(CN(C[C@H](O)[C@@H](O)[C@H](O)[C@H](O)CO)C2)C1 [Example 29] : what is it?
output: 100 to 130%

input: Reported Emax for O=C(Cc1ccc(OCCCC2CCN(c3ncc(Cl)cn3)CC2)cc1F)N1CCC2(CCN2C(=O)CCCCS(=O)(=O)O)C1 (stereo not drawn) [Example 4] : what is it?
output: 100 to 130%

input: Reported Emax for O=C(CCCCS(=O)(=O)O)N1CCC2(CCN(C(=O)Cc3ccc(OCCCC4CCN(c5ncc(Cl)cn5)CC4)cc3F)C2)C1 (stereo not drawn) [Example 1] : what is it?
output: 100 to 130%

input: Reported Emax for O=C(Cc1ccc(OCCCC2CCN(c3ncc(Cl)cn3)CC2)cc1F)N1CCC2(CC1)CN(C(=O)CCCCS(=O)(=O)O)C2 [Example 22] : what is it?
output: 100 to 130%

====

- Measurement Target: human GPR119 (hGPR119) (Homo sapiens, UniProt Q8TDV5)
- Construct: expressed in transfected cells
- Test Description: cAMP accumulation assay (Cisbio cAMP Gs dynamic HTRF kit) in CHO-K1 cells stably expressing human GPR119
- Type: cell-based
- Protocol Conditions: 1 h, % activity normalized to Max and Min controls, 4-parameter fit
Recorded Metric: Emax

Compound: COCc1cnc(N2CCC(CCCOc3ccc(CC(=O)N4CCN(C[C@H](O)[C@@H](O)[C@H](O)[C@H](O)CO)CC4)c(F)c3)CC2)nc1
Measurement Target: human GPR119 (hGPR119) (Homo sapiens, UniProt Q8TDV5)
Emax: 100 to 130%
--
Compound: O=C(Cc1ccc(OCCCC2CCN(c3ncc(Cl)cn3)CC2)cc1F)N1CCOC2(CCN(C[C@H](O)[C@@H](O)[C@H](O)[C@H](O)CO)C2)C1 (stereo partly drawn)
Measurement Target: human GPR119 (hGPR119) (Homo sapiens, UniProt Q8TDV5)
Emax: 100 to 130%
--
Compound: O=C(Cc1ccc(OCCCC2CCN(c3ncc(Cl)cn3)CC2)cc1F)N1CC2(C1)N(C[C@H](O)[C@H](O)[C@H](O)CO)CC2(F)F
Measurement Target: human GPR119 (hGPR119) (Homo sapiens, UniProt Q8TDV5)
Emax: 100 to 130%
--
Compound: O=C(Cc1ccc(OCCCC2CCN(c3ncc(Cl)cn3)CC2)cc1F)N1CC2(CCCN2C[C@H](O)[C@H](O)[C@H](O)CO)C1
Measurement Target: human GPR119 (hGPR119) (Homo sapiens, UniProt Q8TDV5)
Emax: ≥ 130%
--
Compound: O=C(Cc1ccc(OCCCC2CCN(c3ncc(Cl)cn3)CC2)nc1)N1CCN(C[C@H](O)[C@@H](O)[C@H](O)[C@H](O)CO)CC1
Measurement Target: human GPR119 (hGPR119) (Homo sapiens, UniProt Q8TDV5)
Emax: 100 to 130%

input: Reported Emax for O=C(CCCCS(=O)(=O)O)N1CC2CC(C1)N2C(=O)Cc1ccc(OCCCC2CCN(c3ncc(Cl)cn3)CC2)cc1F : what is it?
output: 100 to 130%

input: Reported Emax for O=C(Cc1ccc(OCCCC2CCN(c3ncc(Cl)cn3)CC2)cc1F)N1C2CC1CN(C[C@H](O)[C@@H](O)[C@H](O)[C@H](O)CO)C2 : what is it?
output: 100 to 130%

input: Reported Emax for O=C(CCCCS(=O)(=O)O)N1CC2CCC1CN2C(=O)Cc1ccc(OCCCC2CCN(c3ncc(Cl)cn3)CC2)cc1F (stereo not drawn) : what is it?
output: 100 to 130%

input: Reported Emax for O=C(Cc1ccc(OCCCC2CCN(c3ncc(Cl)cn3)CC2)cc1F)N1CC2(CCCN2C[C@H](O)[C@@H](O)[C@H](O)[C@H](O)CO)C1 : what is it?
output: ≥ 130%

input: Reported Emax for O=C(Cc1ccc(OCCCC2CCN(c3ncc(Cl)cn3)CC2)cc1F)N1CC2CCC1CN2C[C@H](O)[C@H](O)[C@H](O)CO (stereo partly drawn) : what is it?
output: ≥ 130%

input: Reported Emax for COCc1cnc(N2CCC(CCCCOc3ccc(CC(=O)N4CCN(C[C@H](O)[C@@H](O)[C@H](O)[C@H](O)CO)CC4)c(F)c3)CC2)nc1 : what is it?
output: 100 to 130%

input: Reported Emax for O=C(Cc1ccc(OCCCC2CCN(c3ncc(Cl)cn3)CC2)cc1F)N1C[C@H]2CN(C[C@H](O)[C@@H](O)[C@H](O)[C@H](O)CO)[C@H]2C1 : what is it?
output: 100 to 130%
